The reported measurements were obtained from BigSolDB 2.1.

details: in ethyl acetate, 288.15 K
property: solubility (mole fraction)
// no unit string in output, number only

**Q:** Specify measured solubility (mole fraction) for O=C1c2ccccc2C(=O)N1O .
**A:** 0.00301

----------
conditions: in methanol, 313.15 K
property: solubility (mole fraction)
// no unit string in output, number only

**Q:** Specify measured solubility (mole fraction) for O=C1c2ccccc2C(=O)N1O .
**A:** 0.0105

----------
details: in acetone, 278.15 K
property: solubility (mole fraction)
// no unit string in output, number only

**Q:** Specify measured solubility (mole fraction) for O=C1c2ccccc2C(=O)N1O .
**A:** 0.00744
